Below, each entry is listed alongside its reported solubility kinetic.
# reported.conditions: buffer; pH 7.4; 200.0 µM
Non-standard residues stand in square brackets, D forms with d. Residues, ends and D or L forms follow the SMILES beside them. *: point of attachment. Tic = O=C(O)[C@@H]1Cc2ccccc2CN1; Boc = CC(C)(C)OC(=O)*
recorded.metric: solubility kinetic (µg/mL)

>>> reported_result("Cc1ccc(NC(=O)c2ccc3c(c2)OCO3)cc1Cl")
0.9
>>> reported_result("COc1ccccc1OCCn1c(C)c(C=O)c2ccccc21")
1
>>> reported_result("CC(C(=O)Nc1ccccc1)N(C)CCOc1ccccc1 (stereo not drawn)")
43.7
>>> reported_result("CCOc1ccc2[nH]c3c(NCCCOC)ncnc3c2c1")
36.4
>>> reported_result("O=C(NCCCn1ccnc1)c1ccc(-c2cccc(Cl)c2Cl)o1")
48.1
>>> reported_result("CCCCOC(=O)C1=C(C)NC(=O)NC1c1ccc(OC)cc1 (stereo not drawn)")
14.6
>>> reported_result("Cc1ccc(C(=O)N2CCN(c3ccccn3)CC2)cc1[N+](=O)[O-]")
44.8
>>> reported_result("CC(OC(=O)c1ccccc1O)C(=O)Nc1cccc(Cl)c1 (stereo not drawn)")
2
>>> reported_result("O=C(COC(=O)c1cccc([N+](=O)[O-])c1)NC1CCCC1")
32.3
>>> reported_result("Cc1cccc(NC(=O)c2ccc3nccnc3c2)c1C")
37.1
>>> reported_result("Cc1noc(C)c1C(=O)OC(C)C(=O)Nc1ccc2c(c1)OCO2 (stereo not drawn)")
11.8
>>> reported_result("O=C(COC(=O)Cc1cccs1)Nc1cc(S(=O)(=O)N2CCOCC2)ccc1Cl")
56.5
>>> reported_result("CCCOc1ccc(C(C)=O)cc1Cc1c(O)[nH]c(=S)[nH]c1=O")
29.4
>>> reported_result("CC(C)(C)OC(=O)N1Cc2ccccc2C[C@H]1C(=O)N1CCC[C@H]1C(=O)O (Boc-[Tic]-Pro-OH)")
49.9
>>> reported_result("Cc1c(C(=O)N2CCN(c3ccccn3)CC2)oc2c(F)cccc12")
33.2
>>> reported_result("N#C/C(=C\\c1cn(CC(=O)O)c2ccccc12)C(=O)NCc1ccccc1")
48.9
>>> reported_result("CCOC(=O)C1CCN(S(=O)(=O)c2ccc(Cl)s2)CC1")
12.3
>>> reported_result("Cc1ccc(C(=O)OC(C)CN2CCN(C)CC2)cc1.Cl (stereo not drawn)")
40.8
>>> reported_result("Cc1ncc(CN2CCN(C3CCCC3)C(CCO)C2)s1 (stereo not drawn)")
36
>>> reported_result("COc1nc(OC)nc(N2CCC(C(=O)NC3CC3)CC2)n1")
37
>>> reported_result("Cc1cc(NC(=O)c2ccc3nccnc3c2)ccc1Br")
4.5
>>> reported_result("c1csc(-c2nc(-c3ccc(-c4ccon4)s3)no2)c1")
0.5
>>> reported_result("CCN(CC)c1ccc(NC(=O)c2ccc3c(c2)OCO3)cc1")
6.4
>>> reported_result("COc1ccc(-c2onc(C)c2-c2ccc3c(c2)OCCO3)c(O)c1")
2.6
>>> reported_result("COc1ccc(CCNC(=O)c2cnc3ccccc3n2)cc1")
40.2
>>> reported_result("CSc1ccc(CN(C)C(=O)c2cc3ccccc3o2)cc1")
10.3
>>> reported_result("O=c1[nH]c(CN2CCOCC2)nc2scc(-c3ccccc3)c12")
23.9

----------
# reported.conditions: buffer; pH 7.4; 200.0 µM
Tick 1 if solubility kinetic is 4 µg/mL or greater. Tick -1 if solubility kinetic is less than 4 µg/mL.

>>> class("Cn1c(=O)c2c(O)c(C=NCc3ccccc3)c(=O)n(C)c2n(C)c1=O")
1
>>> class("CCOC(=O)[C@H](CCc1ccccc1)N[C@H]1CCc2ccccc2N(CC(=O)O)C1=O.Cl")
1
>>> class("COC(=O)c1cccc(NS(C)(=O)=O)c1")
1
>>> class("Cc1nc2cc(NC(=O)N3CCCC3)ccc2n1C")
1
>>> class("COc1ccc(-c2cc(C(=O)Nc3cc(C)on3)no2)cc1")
-1
>>> class("Cc1cc2ccccn2c1C(=O)c1ccc(S(=O)(=O)N(C)C)cc1")
-1
>>> class("Cn1c(SCC(=O)NC2CC2)nnc1-c1cccs1")
1
>>> class("O=C(CSc1ccc([N+](=O)[O-])cc1)Nc1cccc(S(=O)(=O)N2CCOCC2)c1")
1
>>> class("Cc1cc(C(=O)N2CC(C)CC(C)C2)c(C)o1 (centres undefined)")
1
>>> class("O=c1c2oc3ccccc3c2ncn1Cc1ccc(F)cc1")
-1
>>> class("COc1ccc(/C=C(\\C)C(=O)c2c(C)cc(C)[nH]c2=O)cc1")
1
>>> class("Cc1csc(SC(C)C(=O)Nc2ccc(F)cc2Cl)n1 (centres undefined)")
1
>>> class("CSc1ccc(CNCCN2CCOCC2)cc1.Cl")
1
>>> class("CNC(=O)C(C)N1c2cccc3cccc(c23)S1(=O)=O (centres undefined)")
1
>>> class("N#C/C(=C\\c1ccc[nH]1)C(=O)N1CCCCC1")
1
>>> class("CS(=O)(=O)N1CCN(C(=O)CSc2ccccc2)CC1")
1
>>> class("CCOC(=O)C1=C(C)N(C)C(=S)NC1c1c(OCC)ccc2ccccc12 (centres undefined)")
-1
>>> class("Oc1ccccc1C(=S)N1CCN(C(=S)c2ccccc2O)CC1")
1
>>> class("CC(C)(C)Nc1ncnc2sc(-c3ccccc3)cc12")
-1
>>> class("O=C(NC1CCCCCC1)c1ccco1")
1
>>> class("O=c1[nH]c(NCCO)c(N=Cc2ccccc2)c(=O)[nH]1")
1
>>> class("Cc1cc(C)nc(Nc2ccc(F)cc2)n1")
1
>>> class("Cc1cc(SCc2ccc(Cl)c(Cl)c2)nc(=O)[nH]1")
-1
>>> class("C/C(=C\\c1ccc(Cl)cc1)C(=O)c1c(C)cc(C)[nH]c1=O")
1
>>> class("O=C(COC(=O)c1cc(S(=O)(=O)N2CCOCC2)ccc1O)Nc1ccc2c(c1)OCO2")
1
>>> class("NS(=O)(=O)c1ccc(CCNC(=O)c2ccc(Cl)nc2)cc1")
1
>>> class("Cc1ccnc(NC(=O)CCCc2c[nH]c3ccccc23)c1")
1
>>> class("CCCNC(=O)C1CC(=O)N(c2ccc(OCC)cc2)C1 (centres undefined)")
1
>>> class("Nc1cc(C(=O)OCC(=O)NCCC2=CCCCC2)ccc1Cl")
1
>>> class("Cc1nc(N)nc(N)c1CCCc1ccc(Cl)c(Cl)c1")
1
>>> class("O=C(COc1ccccc1Cl)NCCNC(=O)c1ccncc1")
1
>>> class("O=[N+]([O-])c1ccc(Cl)cc1N1CCCCC1")
-1
>>> class("COc1ccc(C(=O)NC2CCCc3ccccc32)cc1[N+](=O)[O-] (centres undefined)")
-1
>>> class("CCSC1=NN2CCS(=O)(=O)N=C2S1")
1
>>> class("CCOC(=O)c1nn(-c2ccc3c(c2)OCCO3)cc1O")
1
>>> class("Cc1cc(C(=O)Nc2cc(S(C)(=O)=O)ccc2Cl)c(C)o1")
1
>>> class("Cc1ccc(C(=O)N(CC(C)C)c2nc3ccccc3s2)o1")
-1
>>> class("Cc1cc(/C=C(\\C#N)C(=O)Nc2ccccc2F)c(C)[nH]1")
-1
>>> class("CC1CC(C)CN(C(=O)CSc2nnc(N)s2)C1 (centres undefined)")
1
>>> class("Nc1ccc(SCC(=O)Nc2cccc([N+](=O)[O-])c2)cc1")
1
>>> class("CC1CCCC(C)N1C(=O)COC(=O)CCC(=O)c1ccc(F)cc1 (centres undefined)")
1
>>> class("O=[N+]([O-])c1ccc(NC(=S)N2CCN(c3ccccn3)CC2)cc1")
-1
>>> class("CCCc1cc(C(=O)Nc2ccc(Cl)cn2)cs1")
-1
>>> class("Cc1c(Cl)cccc1NC(=S)Nc1ccccn1")
-1
>>> class("O=C(CCCN1CC=C(n2c(=O)[nH]c3ccccc32)CC1)c1ccc(F)cc1")
1
>>> class("Cc1cc(C)c(OCCCn2ccnc2)c(C)c1")
1
>>> class("CCOC(=O)c1ccccc1NC(=O)c1cc2ccccc2o1")
-1
>>> class("CS(=O)(=O)c1ccc(C(=O)N2CCc3ccccc3C2)cc1")
1
>>> class("O=C(NCc1ccccc1)NCC12CC3CC(CC(C3)C1)C2")
-1

----------
Reported solubility kinetic values follow for various compounds
# reported.conditions: buffer; pH 7.4; 200.0 µM
recorded.metric: solubility kinetic

>>> reported_result("O=C(COC(=O)/C=C/c1cccc(F)c1)Nc1ncccn1")
"27.7 µg/mL"
>>> reported_result("COc1ccccc1/C=C/C(=O)OCC(=O)Nc1ccc2c(c1)OCO2")
"3.3 µg/mL"
>>> reported_result("CCCCn1c(=O)[nH]c(=O)c2c1nc(-c1ccccn1)n2CC")
"18.7 µg/mL"
>>> reported_result("COc1ccc(NC(=O)NCCCCc2ccccc2)c(OC)c1")
"0.7 µg/mL"
>>> reported_result("O=C(COC(=O)c1ccc[nH]c1=O)Nc1ccc2c(c1)OC(F)(F)O2")
"> 52.8 µg/mL"
>>> reported_result("O=C(CS(=O)c1ccc(F)cc1)N1CCOCC1 (stereo unspecified)")
"> 40.7 µg/mL"
>>> reported_result("Cc1ccc(C(=O)Nc2nc3ccc(S(C)(=O)=O)cc3s2)cc1C")
"< 0.4 µg/mL"
>>> reported_result("Cc1cccc(C)c1NC(=O)C(=O)c1cn(C)c2ccccc12")
"< 0.3 µg/mL"
>>> reported_result("CC(=O)NC1(C(F)(F)F)NC(=O)N(c2ccc(F)cc2)C1=O (stereo unspecified)")
"> 47.9 µg/mL"
>>> reported_result("CCN(CC(=O)NCCN1CCOCC1)S(=O)(=O)c1ccc(F)cc1")
"> 56 µg/mL"
>>> reported_result("Cl.O=C(O)C1CCN(Cc2cccnc2)CC1")
"> 38.5 µg/mL"
